Cited source for all entries: paper PMC3271384

Biological target: the molecule itself
Test: dynamic light scattering
Reported Metric: stoichiometry N

Protein | Reported Metric | Observed Measurement
alanine:glyoxylate aminotransferase variant G350D on the minor allele (enzyme, human, UniProt P21549 1-392, looked up, holo-form: pyridoxal 5'-phosphate in Schiff base linkage with the lysine at position 209; apo-form: without PLP) MASHKLLVTPLKALLKPLSIPNQLLLGPGPSNLPPRIMAAGGLQMIGSMSKDMYQIMDEIKEGIQYVFQTRNPLTLVISGSGHCALEAALVNVLEPGDSFLVGANGIWGQRAVDIGERIGARVHPMTKDPGGHYTLQEVEEGLAQHKPVLLFLTHGESSTGVLQPLDGFGELCHRYKCLLLVDSVASLGGTPLYMDRQGIDILYSGSQKALNAPPGTSLISFSDKAKKKMYSRKTKPFSFYLDIKWLANFWGCDDQPRMYHHTIPVISLYSLRESLALIAEQGLENSWRQHREAAAYLHGRLQALGLQLFVKDPALRLPTVTTVAVPAGYDWRDIVSYVMDHFDIEIMGDLGPSTGKVLRIGLLGCNATRENVDRVTEALRAALQHCPKKKL | stoichiometry N | 2
alanine:glyoxylate aminotransferase variant G161S on the minor allele (enzyme, human, UniProt P21549 1-392, looked up, holo-form: pyridoxal 5'-phosphate in Schiff base linkage with the lysine at position 209; apo-form: without PLP) MASHKLLVTPLKALLKPLSIPNQLLLGPGPSNLPPRIMAAGGLQMIGSMSKDMYQIMDEIKEGIQYVFQTRNPLTLVISGSGHCALEAALVNVLEPGDSFLVGANGIWGQRAVDIGERIGARVHPMTKDPGGHYTLQEVEEGLAQHKPVLLFLTHGESSTSVLQPLDGFGELCHRYKCLLLVDSVASLGGTPLYMDRQGIDILYSGSQKALNAPPGTSLISFSDKAKKKMYSRKTKPFSFYLDIKWLANFWGCDDQPRMYHHTIPVISLYSLRESLALIAEQGLENSWRQHREAAAYLHGRLQALGLQLFVKDPALRLPTVTTVAVPAGYDWRDIVSYVMDHFDIEIMGGLGPSTGKVLRIGLLGCNATRENVDRVTEALRAALQHCPKKKL | stoichiometry N | 2

# input for lookup
Tell me stoichiometry N reported for alanine:glyoxylate aminotransferase variant W108R on the minor allele (enzyme, human, UniProt P21549 1-392, looked up, holo-form: pyridoxal 5'-phosphate in Schiff base linkage with the lysine at position 209; apo-form: without PLP) MASHKLLVTPLKALLKPLSIPNQLLLGPGPSNLPPRIMAAGGLQMIGSMSKDMYQIMDEIKEGIQYVFQTRNPLTLVISGSGHCALEAALVNVLEPGDSFLVGANGIRGQRAVDIGERIGARVHPMTKDPGGHYTLQEVEEGLAQHKPVLLFLTHGESSTGVLQPLDGFGELCHRYKCLLLVDSVASLGGTPLYMDRQGIDILYSGSQKALNAPPGTSLISFSDKAKKKMYSRKTKPFSFYLDIKWLANFWGCDDQPRMYHHTIPVISLYSLRESLALIAEQGLENSWRQHREAAAYLHGRLQALGLQLFVKDPALRLPTVTTVAVPAGYDWRDIVSYVMDHFDIEIMGGLGPSTGKVLRIGLLGCNATRENVDRVTEALRAALQHCPKKKL
2
